tested target: α4β7 integrin interaction with MadCAM-1 (RPMI8866 cells) (Homo sapiens, UniProt P13612+P26010)
Construct: α4β7 integrin expressing cells; endogenous in cells
Sequence (P13612 34-1032): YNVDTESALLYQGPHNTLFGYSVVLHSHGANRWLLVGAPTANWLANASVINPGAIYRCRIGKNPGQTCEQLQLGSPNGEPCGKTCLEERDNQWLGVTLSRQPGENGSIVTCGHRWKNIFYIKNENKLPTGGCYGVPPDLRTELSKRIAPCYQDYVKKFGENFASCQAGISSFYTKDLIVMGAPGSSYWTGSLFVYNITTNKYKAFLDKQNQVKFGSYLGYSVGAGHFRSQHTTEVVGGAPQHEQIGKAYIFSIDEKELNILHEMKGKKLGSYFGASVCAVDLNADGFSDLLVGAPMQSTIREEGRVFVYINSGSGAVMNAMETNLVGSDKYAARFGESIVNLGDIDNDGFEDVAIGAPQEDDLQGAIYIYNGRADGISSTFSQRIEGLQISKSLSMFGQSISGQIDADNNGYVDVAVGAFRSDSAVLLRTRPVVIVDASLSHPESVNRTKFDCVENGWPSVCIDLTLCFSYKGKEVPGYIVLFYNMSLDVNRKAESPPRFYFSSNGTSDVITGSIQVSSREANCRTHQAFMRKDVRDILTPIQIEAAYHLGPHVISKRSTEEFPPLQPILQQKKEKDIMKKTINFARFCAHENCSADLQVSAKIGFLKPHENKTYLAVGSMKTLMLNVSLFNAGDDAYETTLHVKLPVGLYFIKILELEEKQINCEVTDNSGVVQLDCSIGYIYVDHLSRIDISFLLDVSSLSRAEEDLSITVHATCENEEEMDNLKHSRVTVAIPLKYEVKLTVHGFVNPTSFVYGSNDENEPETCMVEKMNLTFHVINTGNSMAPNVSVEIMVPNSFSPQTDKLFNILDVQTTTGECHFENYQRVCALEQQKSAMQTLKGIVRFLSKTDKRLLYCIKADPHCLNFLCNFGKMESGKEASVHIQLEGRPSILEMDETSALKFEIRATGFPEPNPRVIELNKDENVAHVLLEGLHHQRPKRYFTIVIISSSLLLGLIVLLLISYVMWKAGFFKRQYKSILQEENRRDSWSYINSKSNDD
Sequence (P26010 20-798): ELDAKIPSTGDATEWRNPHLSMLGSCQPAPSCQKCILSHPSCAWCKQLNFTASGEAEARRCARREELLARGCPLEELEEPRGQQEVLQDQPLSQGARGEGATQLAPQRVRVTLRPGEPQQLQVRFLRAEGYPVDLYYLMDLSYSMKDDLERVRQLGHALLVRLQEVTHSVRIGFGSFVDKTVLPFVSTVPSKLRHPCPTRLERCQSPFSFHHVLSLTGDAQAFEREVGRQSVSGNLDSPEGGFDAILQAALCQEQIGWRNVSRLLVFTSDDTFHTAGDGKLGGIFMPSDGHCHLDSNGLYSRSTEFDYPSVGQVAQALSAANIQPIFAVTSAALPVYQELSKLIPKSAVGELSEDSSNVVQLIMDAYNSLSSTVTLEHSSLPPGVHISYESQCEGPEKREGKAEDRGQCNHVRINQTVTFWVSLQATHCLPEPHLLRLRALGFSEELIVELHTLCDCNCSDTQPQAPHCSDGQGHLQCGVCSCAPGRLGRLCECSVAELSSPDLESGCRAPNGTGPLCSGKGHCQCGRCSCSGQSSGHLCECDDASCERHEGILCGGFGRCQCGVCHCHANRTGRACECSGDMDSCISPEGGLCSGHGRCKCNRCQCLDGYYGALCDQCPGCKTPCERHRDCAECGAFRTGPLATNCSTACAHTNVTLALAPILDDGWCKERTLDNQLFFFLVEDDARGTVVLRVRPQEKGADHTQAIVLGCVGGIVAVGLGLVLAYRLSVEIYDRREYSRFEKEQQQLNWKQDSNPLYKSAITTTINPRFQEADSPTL
assay notes: α4β7 Integrin Cell Capture Assay
run conditions: capture of α4β7 integrin expressing RPMI8866 cells on recombinant MadCAM-1 extracellular domain-coated plate; 0.5 mM MnCl2
pEC50: −log10 of the molar value.
reported metric: pEC50

Solved cases below.
- compound: "CC[C@@H](Nc1cc(F)c(C(=O)N[C@@H](Cc2ccc(-c3ncc(C)c(C)n3)c3c2COC3)C(=O)O)c(F)c1)C(F)(F)F [Example 24]"
  pEC50: 7.00
- compound: "Cc1cc(N2CCOC[C@@H]2C(F)(F)F)cc(F)c1C(=O)N[C@@H](Cc1ccc(-c2c(C)nc(C)n(C)c2=O)c2c1COC2)C(=O)O [Example 183]"
  pEC50: 9.97
- compound: "Cc1nc(-c2ccc(C[C@H](NC(=O)c3c(F)cc(N4CCOC[C@@H]4C(F)(F)F)c(F)c3F)C(=O)O)c3c2OCCC3)c(=O)n(C)c1C [Example 121]"
  pEC50: 9.12
- compound: "CC[C@@H](Nc1cc(F)c(C(=O)N[C@@H](Cc2ccc(-c3c(C)cc(C)n(C)c3=O)c3c2CCCO3)C(=O)O)c(F)c1)C(F)(F)F [Example 52]"
  pEC50: 8.79
- compound: "O=C(N[C@@H](Cc1ccc(-c2c(Cl)cc(F)cc2Cl)c2c1OCCN2)C(=O)O)c1c(F)cccc1F [Example 51]"
  pEC50: 7.47

1: CC[C@@H](Nc1cc(F)c(C(=O)N[C@@H](Cc2ccc(-c3c(C)c4cc(F)ccc4n(C)c3=O)c3c2CCCO3)C(=O)O)c(F)c1)C(F)(F)F [Example 33]
2: COc1cc(C)n(C)c(=O)c1-c1ccc(C[C@H](NC(=O)c2c(C)cc(N3CCOC[C@@H]3C(F)(F)F)cc2F)C(=O)O)c2c1CCC2 [Example 198]
Query: In the pair 1 and 2 , the larger recorded pEC50 belongs to which? Please respond with the label that marks your chosen entry.
Result: 2
(2: 10.09, 1: 8.56)

I: Cc1cc(N2CCC2)c(-c2ccc(C[C@H](NC(=O)c3c(F)cc(N4CCOC[C@@H]4C(F)(F)F)cc3F)C(=O)O)c3c2OCCC3)c(=O)n1C (atropisomer, axis not shown) [Example 153]
II: O=C(N[C@@H](Cc1ccc(-c2c(Cl)cc(F)cc2Cl)c2c1COC2)C(=O)O)c1c(F)cccc1F [Example 16]
Query: Returns the identifier with the smallest measured pEC50 among I and II . Please respond with the label that marks your chosen entry.
Result: II
(II: 7.51, I: 9.26)

---

tested target: α4β7 integrin interaction with MadCAM-1 (RPMI8866 cells) (Homo sapiens, UniProt P13612+P26010)
Construct: α4β7 integrin expressing cells; endogenous in cells
assay notes: α4β7 Integrin Cell Capture Assay
run conditions: capture of α4β7 integrin expressing RPMI8866 cells on recombinant MadCAM-1 extracellular domain-coated plate; 0.5 mM MnCl2
reported metric: EC50 (nM)

Solved cases below.
- compound: "Cn1cc(C(F)(F)F)nc(-c2ccc(C[C@H](NC(=O)c3c(F)cc(N4CCOC[C@@H]4C(F)(F)F)cc3F)C(=O)O)c3c2OCCC3)c1=O [Example 123]"
  EC50 / nM: 0.978
- compound: "Cc1nc(-c2ccc(C[C@H](NC(=O)c3c(F)cc(N4CCOC[C@@H]4C(F)(F)F)cc3F)C(=O)O)c3c2OCCC3)c(=O)n(C)c1C [Example 108]"
  EC50 / nM: 0.26
- compound: "O=C(N[C@@H](Cc1ccc(-c2c(Cl)cc(F)cc2Cl)c2c1OCCC2)C(=O)O)c1c(F)cccc1F [Example 98]"
  EC50 / nM: 97.8

A: O=C(N[C@@H](Cc1ccc(-c2c(Cl)cc(F)cc2Cl)c2c1CCCN2)C(=O)O)c1c(F)cccc1F [Example 101]
B: O=C(N[C@@H](Cc1ccc(-c2c(Cl)cc(F)cc2Cl)c2c1[C@@H]1C[C@@H]1CO2)C(=O)O)c1c(Cl)cccc1Cl (single isomer, unassigned) [Example 82]
Query: Returns the identifier with the smallest measured EC50 among A and B . Please respond with the label that marks your chosen entry.
Result: A
(A: 26.9 nM, B: 42 nM)

---

tested target: α4β7 integrin interaction with MadCAM-1 (RPMI8866 cells) (Homo sapiens, UniProt P13612+P26010)
Construct: α4β7 integrin expressing cells; endogenous in cells
assay notes: α4β7 Integrin Cell Capture Assay
run conditions: capture of α4β7 integrin expressing RPMI8866 cells on recombinant MadCAM-1 extracellular domain-coated plate; 0.5 mM MnCl2
reported metric: EC50 (nM)

I: Cc1cc(N2CCOC[C@@H]2C(F)(F)F)cc(F)c1C(=O)N[C@@H](Cc1ccc(-c2cc(N(C)C)c(C)n(C)c2=O)c2c1CCCO2)C(=O)O [Example 147]
II: O=C(N[C@@H](Cc1ccc(-c2c(Cl)cc(F)cc2Cl)c2c1CCCO2)C(=O)O)c1c(F)cc(N2CCOC[C@@H]2C(F)(F)F)cc1F [Example 83]
III: Cc1c(-c2ccc(C[C@H](NC(=O)c3c(F)cc(N4CCOC[C@@H]4C(F)(F)F)cc3F)C(=O)O)c3c2OCCO3)c(=O)n(C)c(=O)n1C (single isomer, unassigned) [Example 9]
Query: Sort key: EC50. Order: high to low. Scope: items listed above. In plain terms: list the labels in the order you were asked to.
Result: II, I, III
